Molecular target: T1, EsCas13d, nuclease-dead (Eubacterium siraeum, UniProt B0MS50, R295A;H300A;R849A;H854A)
T1 sequence: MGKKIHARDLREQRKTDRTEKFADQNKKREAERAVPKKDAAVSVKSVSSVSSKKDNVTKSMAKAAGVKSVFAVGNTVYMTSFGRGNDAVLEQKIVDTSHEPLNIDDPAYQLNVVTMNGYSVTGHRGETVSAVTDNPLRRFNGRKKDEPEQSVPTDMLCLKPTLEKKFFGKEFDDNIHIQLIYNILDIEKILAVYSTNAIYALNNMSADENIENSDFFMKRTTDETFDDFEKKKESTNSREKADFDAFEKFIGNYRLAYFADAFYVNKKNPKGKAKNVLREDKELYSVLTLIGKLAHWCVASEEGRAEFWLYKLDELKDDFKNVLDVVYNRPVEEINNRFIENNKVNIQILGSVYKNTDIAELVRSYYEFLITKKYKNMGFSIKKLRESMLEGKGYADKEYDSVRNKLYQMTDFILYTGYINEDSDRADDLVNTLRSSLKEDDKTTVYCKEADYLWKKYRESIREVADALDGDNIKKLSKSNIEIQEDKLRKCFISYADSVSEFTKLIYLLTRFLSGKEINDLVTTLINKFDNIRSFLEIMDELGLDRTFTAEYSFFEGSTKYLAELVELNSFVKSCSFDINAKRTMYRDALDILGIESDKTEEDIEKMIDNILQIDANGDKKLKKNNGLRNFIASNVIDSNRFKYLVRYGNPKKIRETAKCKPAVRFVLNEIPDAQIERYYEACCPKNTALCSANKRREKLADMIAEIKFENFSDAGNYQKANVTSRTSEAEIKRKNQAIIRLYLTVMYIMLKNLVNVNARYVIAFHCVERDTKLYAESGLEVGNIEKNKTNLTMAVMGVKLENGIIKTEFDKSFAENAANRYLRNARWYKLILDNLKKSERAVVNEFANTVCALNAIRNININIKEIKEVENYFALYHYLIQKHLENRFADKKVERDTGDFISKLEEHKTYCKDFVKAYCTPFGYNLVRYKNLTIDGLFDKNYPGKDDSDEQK
Assay: crRNA (strand 1, pre-loaded); Mg2+; 40 mM Tris-HCl pH 7.5, 150 mM NaCl, 6 mM MgCl2, 1 mM DTT, 0.1% Tween-20, 0.2 mg/ml BSA; 25 C; 10 min per concentration, then washed
Details: tags: His6-TwinStrep-SUMO cleaved; N-terminal SNAP kept (SNAP-Surface 488); label: 3' end held by stalled T7 RNA polymerase
The entries below are paired with their reported Kd.
Kindly answer with a numeric value in nM, unit omitted.

target 1 A1C,G17C (mixed) RNA 1: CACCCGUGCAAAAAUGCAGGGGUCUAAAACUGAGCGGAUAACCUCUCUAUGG RNA 2: GGGAAUGGAUCCACAUCUACGAAUUCGUACCAUACAGAGGUUAUCCGCUCCCCGAGAUCGGAAGAGCACACGU
54

The recorded Kd for entry target 1 insC 3' of 13,insU 3' of 5 (mixed) RNA 1: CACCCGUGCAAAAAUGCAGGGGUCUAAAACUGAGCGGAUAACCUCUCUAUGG RNA 2: GGGAAUGGAUCCACAUCUACGAAUUCGUACCAUAGAGAGCGUUAUCCGUCUCACCGAGAUCGGAAGAGCACACGU equals 8.1
